Below is a list of entries, each paired with its recorded IC50 value.
- MEASURED_TARGET: p70S6K (Homo sapiens)
- Sequence (P23443 whole entry): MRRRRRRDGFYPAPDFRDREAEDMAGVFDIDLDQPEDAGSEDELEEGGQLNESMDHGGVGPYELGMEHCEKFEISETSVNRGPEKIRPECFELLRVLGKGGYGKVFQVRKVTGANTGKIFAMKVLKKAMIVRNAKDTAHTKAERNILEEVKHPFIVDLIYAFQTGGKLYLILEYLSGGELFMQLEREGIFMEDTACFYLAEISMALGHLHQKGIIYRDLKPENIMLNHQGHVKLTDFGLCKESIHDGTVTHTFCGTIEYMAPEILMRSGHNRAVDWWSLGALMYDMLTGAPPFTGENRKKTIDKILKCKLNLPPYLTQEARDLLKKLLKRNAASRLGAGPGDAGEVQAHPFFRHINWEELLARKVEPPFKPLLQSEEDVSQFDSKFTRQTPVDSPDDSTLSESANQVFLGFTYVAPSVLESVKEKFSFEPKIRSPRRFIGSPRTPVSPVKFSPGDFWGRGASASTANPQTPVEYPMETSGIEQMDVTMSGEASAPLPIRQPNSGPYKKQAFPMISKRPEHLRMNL
- TEST_PROTOCOL: Luciferase-coupled chemiluminescence kinase assay (ATP consumption)
- Format: biochemical

Below: 4 compounds and their reported IC50.
Cc1ccc(Cl)cc1N1CCN(c2ncnc3[nH]nc(-c4ccc(OCC5CCNCC5)cc4)c23)CC1 [Entry 359] :: 100 to 1000 nM
Cc1ccc(Cl)cc1N1CCN(c2ncnc3[nH]nc(-c4ccc(OCCCN(C)C)cc4)c23)CC1 [Entry 380] :: 1000 to 10000 nM
COc1ccc(-c2n[nH]c3ncnc(N4CCN(c5cc(Cl)ccc5C)CC4)c23)cc1 [Entry 356] :: 100 to 1000 nM
Clc1cccc(N2CCN(c3ncnc4[nH]ccc34)CC2)c1 [Entry 296] :: 100 to 1000 nM

Continue with the next compound.
Respond only with IC50 recorded for CCc1n[nH]c2ncnc(N3CCN(c4ccc(OCCN5CCOCC5)c(Cl)c4)CC3)c12 [Entry 345]
1000 to 10000 nM
